Values compiled from patent US20240002497A1.

molecular target: T1, huNav1.7α+β1-β2-β3 (human, UniProt Q15858 1-1988; Q07699 19-218; O60939 30-215; Q9NY72 23-215); experiment: binding FACS, CHO FlpIn cells
T1 construct: 5N11S variant; also called huNav1.7-beta1-beta2-beta3; huNav1.7α+Navβ1-Navβ2-Navβ3
experimental endpoint: EC50

Illustrative cases are given below, each with its answer.
{"binder": "F010301344 (VHH, vs 387G05: D54G) VHH: EVQLVESGGGLVQAGGSLRLSCDASGRILRIGYMRWHRQGAGKQREFVARITDGSATDYADSVKGRFTISRDNAKNTVYLQMNNLNPEDTAVYYCEALVTASVRGGSIHSGTYWGRGTLVTVSS", "EC50": "4.2 nM"}
{"binder": "F010301440 (VHH, vs 387G05: G100hT) VHH: EVQLVESGGGLVQAGGSLRLSCDASGRILRIGYMRWHRQGAGKQREFVARITDDSATDYADSVKGRFTISRDNAKNTVYLQMNNLNPEDTAVYYCEALVTASVRGGSIHSTTYWGRGTLVTVSS", "EC50": "5.7 nM"}

Now for a further binder.
Q. Give its EC50 value. Item: F010301313 (VHH, vs 387G05: R35K) VHH: EVQLVESGGGLVQAGGSLRLSCDASGRILRIGYMKWHRQGAGKQREFVARITDDSATDYADSVKGRFTISRDNAKNTVYLQMNNLNPEDTAVYYCEALVTASVRGGSIHSGTYWGRGTLVTVSS
A. 5.5 nM
